B1: Transcription factor SOX-11, residues 50 to 117; numbered along this chain, P35716 (parent)
chain: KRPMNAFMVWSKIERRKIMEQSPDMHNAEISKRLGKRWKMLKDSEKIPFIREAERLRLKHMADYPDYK

Variants of: B1
Test: abundance fitness (aPCA) (normalised: wild type 0, dead -1); higher = more abundant; growth selection in yeast, the domain comes from the species named
Conditions: Homo sapiens
Consider the following variants; for each one, report its abundance fitness.

Some variants with known abundance fitness results, for comparison:
{"columns": ["Variant", "abundance fitness"],
 "data": [
  ["L34W", -0.909],
  ["I30P", -0.708],
  ["I47E", 0.259],
  ["K46T", -0.619]
]}

Would you mind giving abundance fitness for every variant in the list below?
1. K39S
2. N27W
3. E20A

[reply]
1: -0.148; 2: 0.105; 3: -0.348

Hello, I would appreciate it if you could give abundance fitness for each entry below.
1. N27T
2. E29S
3. D24F
4. K39N
5. P23W
6. K39R
7. K42I
8. S44D

[reply]
1: -0.033; 2: -0.638; 3: -0.435; 4: -0.045; 5: -1.09; 6: -0.119; 7: -0.526; 8: 0.169

Need abundance fitness for each of these variants.
1. P23Q
2. L34C
3. I47N
4. K36Y
5. M40P

[reply]
[-0.706, -0.522, -0.529, 0.041, -0.711]

Data provenance: the Human Domainome abundance scans (Beltran et al. 2025)
